# Test system: A-431
# assay.method.text: Antiproliferative activity against human A431 cells after 48 hrs by MTT assay
# Assay type: functional, cell-based
# test.conditions: A-431, 48 h
measured.endpoint: pEC50
# pEC50 is unitless: minus log10 of the molar concentration; print number only

Reported pEC50 ( O=[P@@]1(c2ccccc2)O[C@H](COCc2ccccc2)[C@@H](OCc2ccccc2)[C@H](OCc2ccccc2)[C@H]1O ) = 4.84

----------
# Tested on: C6
# assay.method.text: Antiproliferative activity against rat C6 cells after 48 hrs by MTT assay
# Type: functional, cell-based
# test.conditions: C6, 48 h
Recorded EC50 values for a group of compounds are listed next.

Solved cases (6 shown):
O=C(O[C@@H]1[C@@H](OCc2ccccc2)[C@H](OCc2ccccc2)[C@@H](COCc2ccccc2)O[P@@]1(=O)c1ccccc1)C(F)(F)F	> 25 µM
O=[P@]1(c2cccc(F)c2)O[C@H](COCc2ccccc2)[C@@H](OCc2ccccc2)[C@H](OCc2ccccc2)[C@@H]1O	> 25 µM
COc1cccc([P@]2(=O)O[C@H](COCc3ccccc3)[C@@H](OCc3ccccc3)[C@H](OCc3ccccc3)[C@H]2O)c1	> 25 µM
Cc1cccc([P@]2(=O)O[C@H](COCc3ccccc3)[C@@H](OCc3ccccc3)[C@H](OCc3ccccc3)[C@H]2O)c1	> 25 µM
O=[P@@]1(c2cccc(C(F)(F)F)c2)O[C@H](COCc2ccccc2)[C@@H](OCc2ccccc2)[C@H](OCc2ccccc2)[C@@H]1O	> 25 µM
CSC(=S)O[C@H]1[C@@H](OCc2ccccc2)[C@H](OCc2ccccc2)[C@@H](COCc2ccccc2)O[P@@]1(=O)c1ccccc1	> 25 µM

Reported EC50 ( Cc1cccc([P@@]2(=O)O[C@H](COCc3ccccc3)[C@@H](OCc3ccccc3)[C@H](OCc3ccccc3)[C@@H]2O)c1 ) = > 25 µM

Reported EC50 ( O=[P@]1(c2cccc(F)c2)O[C@H](COCc2ccccc2)[C@@H](OCc2ccccc2)[C@H](OCc2ccccc2)[C@H]1O ) = > 25 µM

Reported EC50 ( Cc1cccc([P@@]2(=O)O[C@H](COCc3ccccc3)[C@@H](OCc3ccccc3)[C@H](OCc3ccccc3)[C@H]2O)c1 ) = > 25 µM

Reported EC50 ( [N-]=[N+]=N[C@H]1[C@@H](OCc2ccccc2)[C@H](OCc2ccccc2)[C@@H](COCc2ccccc2)O[P@@]1(=O)c1ccccc1 ) = > 25 µM

Reported EC50 ( Cc1ccc([P@]2(=O)O[C@H](COCc3ccccc3)[C@@H](OCc3ccccc3)[C@H](OCc3ccccc3)[C@H]2O)cc1 ) = > 25 µM

Reported EC50 ( O=C(O[C@@H]1[C@@H](OCc2ccccc2)[C@H](OCc2ccccc2)[C@@H](COCc2ccccc2)O[P@@]1(=O)c1ccccc1)c1ccccc1 ) = > 25 µM

Reported EC50 ( O=[P@]1(c2cccc(C(F)(F)F)c2)O[C@H](COCc2ccccc2)[C@@H](OCc2ccccc2)[C@H](OCc2ccccc2)[C@H]1O ) = > 25 µM

Reported EC50 ( COc1cccc([P@]2(=O)O[C@H](COCc3ccccc3)[C@@H](OCc3ccccc3)[C@H](OCc3ccccc3)[C@@H]2O)c1 ) = > 25 µM

Reported EC50 ( N[C@H]1[C@@H](OCc2ccccc2)[C@H](OCc2ccccc2)[C@@H](COCc2ccccc2)O[P@@]1(=O)c1ccccc1 ) = 18.7 µM

Reported EC50 ( O=C(Nc1ccccc1)N[C@@H]1[C@@H](OCc2ccccc2)[C@H](OCc2ccccc2)[C@@H](COCc2ccccc2)O[P@@]1(=O)c1ccccc1 ) = 4.4 µM

Reported EC50 ( COc1cccc([P@@]2(=O)O[C@H](COCc3ccccc3)[C@@H](OCc3ccccc3)[C@H](OCc3ccccc3)[C@H]2O)c1 ) = > 25 µM

Reported EC50 ( COc1ccc([P@]2(=O)O[C@H](COCc3ccccc3)[C@@H](OCc3ccccc3)[C@H](OCc3ccccc3)[C@H]2O)cc1 ) = 8.4 µM
